The measurements presented in this section are drawn from patent US20230303681A1.

Please provide measured MFI for the entries that follow.
- system-under-test: T1, human TMEM106B (human, UniProt Q9NUM4 2-274)
- T1 construct: Full-length, on transiently transfected HEK293 cells, or natively expressed on HeLa, U251 and A549 cells; also called huTMEM106B; huTMEM
- experiment-description: FACS HEK+huTMEM, 0.1 ug/ml;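 further: flow cytometry binding of purified mouse IgG antibodies to HEK293 cells transiently expressing TMEM106B, read as median fluorescence intensity with propidium iodide positive dead cells gated out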

INSERT INTO measurements (binder, measured_parameter, result) VALUES
  ('anti-TMEM106B antibody TM-13 (antibody, V domains shown) VH: QVQLQQSGAELVKPGASVKMSCKASGYTFTTFPIEWMKQSHGKGLEWIGNFHPYNDDTKYNEKFKGKATLTVDKSSSTVYLDLSRLTSDDSAVYYCARYFYGGMDYWGQGTSVTVSS VL: DIQMTQSPASLSVSVGETVTITCRASENIYSSLGWYQQKQGESPQLLVFAATNLADGVPSRFSGSGSGTQYSLKINSLQSEDFGTYYCQHLWSIPWTFGGGTRLEIK', 'MFI', 19100),
  ('anti-TMEM106B antibody TM-6 (antibody, V domains shown, mouse IgG from hybridoma) VH: QVQLQQSGAELVKPGASVKLSCKASGYTFTEYTIHWVKQRSGQGLEWIGWFYPGSTYIDYNEKFKDKATLTADKSSSTVYLELSRLTSEDSAVYFCARHEEDYSNWFPFWGQGTLVTVSA VL: DIQMSQSSSYLSVSLGGRVTITCKASDHINNWLAWYQQKPGNAPRLLISGATSLETGVPSRFSGSGSGKDYTLSITSLQTEDVATYYCQQYWSSPYTFGGGTKLEIK', 'MFI', 327),
  ('anti-TMEM106B antibody TM-5 (antibody, V domains shown) VH: QVQLQQSGTELARPGASVKVSCKASGYIFTTYGITWVKQRGGQGLEWIGEIYPRSDNTYYNEKFKDKATLTADKSSSTAYMELRSLTSEDSAVYFCARSKGSGTGDYWGQGTTVTVSS VL: DIQMTQSPASLSASVGETVTITCRASENIYIYLAWYQQKQGKTPQLLVYNGKMLAENVPSRFSGSGSGTQFSLKINSLQPEDFGSYYCQHHYGSPPAFGAGTKLELK', 'MFI', 10800),
  ('anti-TMEM106B antibody TM-22 (antibody, V domains shown) VH: QVQLQQSGPELVKPGASVKISCKASGYRFTSYYIHWVKQRPGQGLEWIGWIYPGNGITNYNEKFKGKATLTADTSSSTAYMQLSSLTSEDSAVYYCASPYYGIRNCYFDVWGTGTTVTVSS VL: DVLMTQTPLSLPVSLGDHASISCRSGQSIVHSNGNTYLEWYLQKPGQSPKLLIYKVSNRFSGVPDRFSGSGSGTDFTLKISRVEAEDLGIYYCFQGSHVPWTFGGGTKLEIK', 'MFI', 833);

Answer with the recorded MFI of anti-TMEM106B antibody TM-49 (antibody, V domains shown, mouse IgG from hybridoma) VH: QVQLQQPGAELVRPGSSVKLSCKASGYTFTRFWMHWVKQRPIQGLEWIGNIDPSDSQTHYNQKFKDKATLTVDKSSSTAYMQLSSLTSEDSAVYYCARLITVDYAMDYWGQGTSVTVSS VL: QIVLTQSPAIMSASPGEKVTISCSASSSVSYMYWYQQKPGSSPKPWIHRTSNLASGVPVRFSGSGSGTSYSLTISSMEAEDAATYYCQQYHSYPPTFGAGTKLELK only.
3030
